Test system: CAKI-1 renal
Assay: NCI-60 one-dose screen, 48 h
Conditions: 10 µM unless noted
Compounds without any hit were thinned out: in the full panel of roughly 83,000, 20% have a hit. The source made the active and inactive calls. The calls were made as follows: active = growth percent below 10; inactive = the rest.
Permitted responses: True for active, False for inactive

Observe how each entry below is paired with its result.
{"columns": ["Molecule", "Qualitative Label"],
 "data": [
  ["Ic1ccc(OCCCCn2ccnc2)cc1", "False"],
  ["C=C1C(=O)O[C@H]2[C@H]1CC/C(COC(=O)NCc1ccc(Cn3c(=O)sn(CCCCC)c3=O)cc1)=C\\CC[C@@]1(C)O[C@@H]21", "False"],
  ["CCN1CCN(C(=O)[C@]23CCC(C)(C)C[C@@H]2C2=CC[C@@H]4[C@@]5(C)CCC(=O)C(C)(C)[C@@H]5CC[C@@]4(C)[C@]2(C)CC3)CC1", "False"]
]}

Identify the outcome logged in this assay for the molecule shown: COC(=O)Nc1nc2ccc(S(=O)c3ccccc3)cc2[nH]1 (stereo unspecified) False

I would be grateful if you could indicate the recorded call for CCOCCNC1=C(Cl)C(=O)c2ccccc2C1=O . False

Query: recorded result category for Cc1ccc(-c2nc([P+](c3ccccc3)(c3ccccc3)c3ccccc3)c(S(=O)(=O)c3ccc(C)cc3)o2)cc1 in this test True

I'd appreciate the recorded outcome for O=C(Nc1ccc(Oc2cccc(Cl)c2)c(Cl)c1)c1cccnc1 from this test. False

Please state the recorded outcome for this molecule: NC(N)=NCCCCCNc1noc(Cc2c[nH]c3cc(Br)ccc23)n1 False
